# System: mycobacteria of the avium complex, patient Ka-B
# assay.notes: MIC alone and in combination
# Assay type: cell-based
# settings: Homo sapiens, single
endpoint.label: MIC

CO[C@H]1/C=C/O[C@@]2(C)Oc3c(C)c(O)c4c(O)c(c(/C=N/N5CCN(C)CC5)c(O)c4c3C2=O)NC(=O)/C(C)=C\C=C\[C@H](C)[C@H](O)[C@@H](C)[C@@H](O)[C@@H](C)[C@H](OC(C)=O)[C@@H]1C    > 32 µg/mL

Q) Fill in: MIC of NNC(=O)c1ccncc1 [INH, isonicotinic acid hydrazide] is ___
A) 32 µg/mL

Q) Param item = CC[C@@H](CO)NCCN[C@@H](CC)CO ; retrieve measured MIC.
A) > 32 µg/mL

Q) What value of MIC has been reported for the following compound? CC(=O)Nc1ccc(C=NNC(N)=S)cc1
A) > 32 µg/mL
